- Tested on: HCT116 (human colorectal carcinoma)
- Assay name: MTS antiproliferative assay
- Condition parameters: read-out: Cytotoxic activity IC50 HCT116; MTS, 72 h of incubation
- Description: Cell culture the cell lines A2058 (human metastatic melanoma), BLM (human metastatic melanoma), HCT116 (human colorectal carcinoma), HeLa (human cervical adenocarcinoma), Jurkat (human leukaemic T cell lymphoma). […] Cells were maintained in standard conditions with an atmosphere containing 5% CO2 at 37 °C. […]
Parameter measured: IC50 (µM)
One number for each entry, in µM.

Prompt: Looking for the measured IC50 of N.N.[Cl][Pt][Cl] [cisPt, cisplatin] , can you help?
Response: 7.4

* * *

- Test system: Staphylococcus aureus (S. aureus) CCM 3953
- Assay name: Antimicrobial activity, macrodilution method (growth by A590)
- Format: cell-based
- Condition parameters: Staphylococcus aureus, CCM3953, read-out: IC50 S. aureus
Parameter measured: IC50

Prompt: Given `O=C(O)c1cccc(C(=O)O)n1` , state its recorded IC50.
Response: > 1000 µM

* * *

- System: Microsporum gypseum (M. gypseum) CCM F-8342
- Assay name: Growth of filamentous fungi, macrodilution method on solidified PDA (colony diameter)
- Format: cell-based
- Condition parameters: Nannizzia gypsea, read-out: IC50 M. gypseum
Parameter measured: IC50

Prompt: Fill in: IC50 of O=C(O)c1cccc(C(=O)O)n1 [H2Dpic, dipicolinic acid] is ___
Response: > 1000 µM

* * *

Record form. Attribute: IC50. Fill in for each entry.
- Tested on: human dermal fibroblasts (HDF)
- Assay name: in vitro
- Description: Cell culture the cell lines A2058 (human metastatic melanoma), BLM (human metastatic melanoma), HCT116 (human colorectal carcinoma), HeLa (human cervical adenocarcinoma), Jurkat (human leukaemic T cell lymphoma). […] Cells were maintained in standard conditions with an atmosphere containing 5% CO2 at 37 °C. […]
One number for each entry, in µM.

Below: 3 compounds and their reported IC50.
Prompt: Sample O.O=C([O-])c1ccccn1.O=C([O-])c1ccccn1.O=C([O-])c1ccccn1.[Ga+3] [GaPic, [Ga(Pic)3]·H2O] — what was its IC50?
Response: 231

Prompt: // query IC50 value for entry O.O.O.O.O.O.O=C([O-])c1cc(O)cc(C(=O)[O-])n1.O=C([O-])c1cc(O)cc(C(=O)[O-])n1.[Ga+3].[Ga+3].[OH-].[OH-] [GaChel, [Ga(Chel)(H2O)(OH)]2·4H2O]
Response: 347

Prompt: // IC50 lookup, key: O.O=C([O-])c1cccc(C(=O)[O-])n1.O=C([O-])c1cccc(C(=O)[O-])n1.[Ga+3].[OH3+] [GaDpic, H3O[Ga(Dpic)2]·H2O]
Response: 288

Switching to the query record.
Prompt: Entry O.O.O=C([O-])c1cc(Cl)cc(C(=O)[O-])n1.O=C([O-])c1cc(Cl)cc(C(=O)[O-])n1.[Ga+3].[Ga+3].[OH-].[OH-] [GaCldpic, [Ga(Cldpic)(H2O)(OH)]2] : reported IC50 = ?
Response: 447

* * *

- Tested on: HCT116 (human colorectal carcinoma)
- Assay name: MTS antiproliferative assay
Record form. Attribute: pIC50. Fill in for each entry.
Answers are plain numbers, as −log10 of the molar value.

Prompt: # lookup: pIC50 of O.O=C([O-])c1cccc(C(=O)[O-])n1.O=C([O-])c1cccc(C(=O)[O-])n1.[Ga+3].[OH3+] [GaDpic, H3O[Ga(Dpic)2]·H2O]
Response: 2.91

Fill in pIC50 for each of the 3 molecules listed.
1. O.O=C([O-])c1ccccn1.O=C([O-])c1ccccn1.O=C([O-])c1ccccn1.[Ga+3] [GaPic, [Ga(Pic)3]·H2O]
2. O.O.O.O.O.O.O=C([O-])c1cc(O)cc(C(=O)[O-])n1.O=C([O-])c1cc(O)cc(C(=O)[O-])n1.[Ga+3].[Ga+3].[OH-].[OH-] [GaChel, [Ga(Chel)(H2O)(OH)]2·4H2O]
3. O.O.O=C([O-])c1cc(Cl)cc(C(=O)[O-])n1.O=C([O-])c1cc(Cl)cc(C(=O)[O-])n1.[Ga+3].[Ga+3].[OH-].[OH-] [GaCldpic, [Ga(Cldpic)(H2O)(OH)]2]

Response:
1: 3.00; 2: 3.39; 3: 3.39
